tested.system: Leucine-rich repeat serine/threonine-protein kinase 2 (Homo sapiens, UniProt Q5S007)
Sequence (Q5S007 whole entry, looked up, the tested form may be a part): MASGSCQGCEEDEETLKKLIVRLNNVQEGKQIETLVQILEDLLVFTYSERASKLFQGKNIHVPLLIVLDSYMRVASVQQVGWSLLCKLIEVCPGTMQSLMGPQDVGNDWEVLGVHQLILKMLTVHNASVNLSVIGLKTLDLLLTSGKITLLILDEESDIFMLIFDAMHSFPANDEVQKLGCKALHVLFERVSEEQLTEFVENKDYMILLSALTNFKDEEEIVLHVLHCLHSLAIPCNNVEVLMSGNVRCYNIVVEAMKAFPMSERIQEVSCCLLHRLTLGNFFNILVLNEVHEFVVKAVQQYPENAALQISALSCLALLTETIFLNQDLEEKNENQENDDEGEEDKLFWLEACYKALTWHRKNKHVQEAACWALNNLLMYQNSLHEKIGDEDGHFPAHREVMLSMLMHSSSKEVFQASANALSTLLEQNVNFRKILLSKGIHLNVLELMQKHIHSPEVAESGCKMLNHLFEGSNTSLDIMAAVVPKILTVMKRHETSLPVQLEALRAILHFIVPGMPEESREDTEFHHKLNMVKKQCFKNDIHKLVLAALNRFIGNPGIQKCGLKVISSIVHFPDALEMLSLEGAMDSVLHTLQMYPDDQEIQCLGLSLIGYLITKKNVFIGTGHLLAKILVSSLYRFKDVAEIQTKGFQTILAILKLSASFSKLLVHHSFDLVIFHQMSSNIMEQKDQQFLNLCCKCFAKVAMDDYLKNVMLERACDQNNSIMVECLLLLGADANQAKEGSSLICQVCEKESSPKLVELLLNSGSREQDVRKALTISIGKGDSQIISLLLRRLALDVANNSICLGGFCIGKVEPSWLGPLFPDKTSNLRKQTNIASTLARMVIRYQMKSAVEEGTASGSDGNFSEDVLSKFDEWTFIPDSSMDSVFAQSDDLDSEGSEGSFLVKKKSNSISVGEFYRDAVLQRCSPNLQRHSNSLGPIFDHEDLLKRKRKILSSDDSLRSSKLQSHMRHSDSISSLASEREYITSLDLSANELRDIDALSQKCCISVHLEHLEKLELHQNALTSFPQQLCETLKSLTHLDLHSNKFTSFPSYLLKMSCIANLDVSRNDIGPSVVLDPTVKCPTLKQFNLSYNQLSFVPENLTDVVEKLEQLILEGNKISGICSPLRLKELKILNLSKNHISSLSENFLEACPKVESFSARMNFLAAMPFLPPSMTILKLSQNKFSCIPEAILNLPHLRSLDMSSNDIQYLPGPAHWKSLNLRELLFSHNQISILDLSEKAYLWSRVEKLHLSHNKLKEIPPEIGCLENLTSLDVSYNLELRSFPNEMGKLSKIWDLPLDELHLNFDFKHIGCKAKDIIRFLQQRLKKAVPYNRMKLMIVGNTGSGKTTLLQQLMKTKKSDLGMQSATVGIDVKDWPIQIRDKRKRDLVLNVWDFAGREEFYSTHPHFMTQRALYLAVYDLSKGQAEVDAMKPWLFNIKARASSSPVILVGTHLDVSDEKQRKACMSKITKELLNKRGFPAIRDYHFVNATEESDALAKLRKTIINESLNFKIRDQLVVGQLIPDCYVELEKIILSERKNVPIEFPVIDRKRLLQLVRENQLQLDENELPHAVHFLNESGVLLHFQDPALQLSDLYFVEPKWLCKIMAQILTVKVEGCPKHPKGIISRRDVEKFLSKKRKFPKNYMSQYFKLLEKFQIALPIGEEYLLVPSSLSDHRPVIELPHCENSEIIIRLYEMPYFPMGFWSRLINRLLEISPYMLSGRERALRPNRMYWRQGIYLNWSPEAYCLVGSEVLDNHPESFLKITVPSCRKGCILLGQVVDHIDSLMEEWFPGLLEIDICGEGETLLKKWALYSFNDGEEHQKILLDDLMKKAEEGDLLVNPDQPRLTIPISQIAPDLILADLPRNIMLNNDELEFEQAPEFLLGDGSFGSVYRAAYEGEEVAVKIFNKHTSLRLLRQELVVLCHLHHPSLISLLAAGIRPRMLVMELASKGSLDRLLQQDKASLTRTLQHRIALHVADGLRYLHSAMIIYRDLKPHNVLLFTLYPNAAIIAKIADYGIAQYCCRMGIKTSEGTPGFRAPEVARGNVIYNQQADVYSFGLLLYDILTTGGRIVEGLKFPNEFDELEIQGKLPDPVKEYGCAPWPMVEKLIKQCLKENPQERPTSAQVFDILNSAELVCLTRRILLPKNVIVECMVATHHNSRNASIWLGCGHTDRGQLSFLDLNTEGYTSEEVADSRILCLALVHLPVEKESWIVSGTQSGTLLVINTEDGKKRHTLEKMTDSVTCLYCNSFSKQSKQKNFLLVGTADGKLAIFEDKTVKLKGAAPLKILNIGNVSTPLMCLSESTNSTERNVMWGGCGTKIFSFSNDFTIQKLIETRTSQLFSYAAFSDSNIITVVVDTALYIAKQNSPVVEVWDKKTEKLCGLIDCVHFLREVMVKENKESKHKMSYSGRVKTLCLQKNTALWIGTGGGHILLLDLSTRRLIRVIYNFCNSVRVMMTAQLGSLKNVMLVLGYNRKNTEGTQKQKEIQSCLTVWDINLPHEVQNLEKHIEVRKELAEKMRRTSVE
protocol: LRRK2 Assay: LRRK2 kinase activity was measured using Lantha Screen technology from Invitrogen. GST-tagged truncated LRRK2 from Invitrogen (Cat #PV4874) was incubated with a fluorescein-labeled peptide substrate based upon ezrin/radixin/moesin (ERM), also known as LRRKtide (Invitrogen cat #PR8976A), in the presence of a dose response of compound. Upon completion, the assay was stopped and detected with a terbium labeled anti-phospho-ERM antibody (Invitrogen, cat #PR8975A). The assay was carried out under the following protocol: The compound dose response was prepared by diluting compound to a top concentration of 0.3 mM in 100% DMSO and serial diluted by half-log in DMSO to give an 11 point curve, 100× final assay concentration. Using Echo acoustic dispensing, 60 nL of compound was transferred to a low volume Corning 384-well assay plate. 3 μL of a working solution of substrate (200 nM LRRKtide, 2 mM ATP) prepared in assay buffer (50 mM HEPES, pH 7.5, 3 mM MgCl2, with 2 mM DTT and 0.01% Brij35 added fresh) was added to the 60 nL compound assay plate. The kinase reaction was started with 3 μL of a working solution of LRRK2 enzyme at a concentration of 4 μg/mL. The final reaction concentrations were 100 nM LRRKtide, 1 mM ATP, 2 μg/mL LRRK2 enzyme and a compound dose response with a top dose of 3 μM. The reaction was allowed to progress at room temperature for 30 minutes and then stopped with the addition of 6 μL of detection buffer (20 mM Tris pH 7.6, 0.01% NP-40, 6 mM EDTA with 2 nM terbium labeled anti-phospho-ERM). After an incubation of 1 hour at room temperature, the plate was read on an Envision with an excitation wavelength of 340 nm and a reading emission at both 520 nm and 495 nm. The ratio of the 520 nm and 495 nm emission was used to analyze the data. Inhibition of mutant G2019S LRRK2 (Invitrogen cat #PV4881) was measured in the exact same method. All final concentrations of substrate ATP and enzyme were the same.
quantity.measured: IC50

In [3]: df
Out[3]:
                                   compound  endpoint_result
0  CN1CC[C@@H](n2c(C3CCC(F)C3)nc3cnc4ccc(F)cc4c32)C1 (stereo partly specified)        > 2840 nM

The reported measurements were obtained from ChEMBL document CHEMBL5728780.
